Data provenance is PubChem BioAssay (NCI).

Measured growth inhibition of individual entries
Experiment: NCI Yeast Anticancer Drug Screen. Data for the mlh1 strain (AID 171);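 note: 0% = growth of vehicle-treated control cultures of the same strain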
Conditions: S. cerevisiae mlh1 strain growth inhibition; at 11.0 µM; stronger effect = higher value
Compounds without any hit were thinned out: in the full panel of roughly 79,000, 15% have a hit. Calls of active or inactive are those of the source. Cut-off read from the data, not from the text of the source: active = growth inhibition above about 70%; inactive = the rest.
experimental endpoint: growth inhibition

> print(dat)
                                    compound           result
 1  O=C(Cc1ccccc1)NNc1nc(NNC(=O)c2ccncc2)nc(Nc2ccc([N+](=O)[O-])cc2)n1   42% (inactive)
 2   N#CSCC1COc2ccccc2O1 (centres undefined)  -27% (inactive)
 3           CCOC(=O)Nc1ccc(C)c(NC(=O)OCC)c1   14% (inactive)
 4  CN1C(=O)C(CC(=O)O)NC1=S (centres undefined)    4% (inactive)
 5  CCN1CCC(O)(c2ccc(Oc3ccc(Cl)cc3)cc2)C(C(=O)c2ccc(Oc3ccc(Cl)cc3)cc2)C1 (centres undefined)   -8% (inactive)
 6                          Nc1cc2ccccc2cc1N  -18% (inactive)
 7    COc1ccc(C(=O)/C=C\c2ccc(Cl)c(Cl)c2)cc1  -11% (inactive)
 8                COc1cc(C(=O)C=O)cc(OC)c1OC   -6% (inactive)
 9     COc1cc2oc3ccccc3c(=O)c2cc1CSc1ccccc1N   -1% (inactive)
10           CCC(C)(C)c1ccc(Oc2ccccc2)c(N)c1     95% (active)
11           Clc1nc(Cl)nc(Nc2cccc3ccccc23)n1     85% (active)
12         O=C(/N=N/C(=O)Oc1ccccc1)Oc1ccccc1  -78% (inactive)
13    O=C1c2ccccc2C(=O)c2sc(Nc3ccccc3Cl)nc21     94% (active)
14  O=C(Nn1c(-c2ccccc2)nc2ccccc2c1=O)c1ccc(CS)cc1   10% (inactive)
15  COc1ccc2nc3cccc([N+](=O)[O-])c3c(NCCNCCN(C)C)c2c1   -1% (inactive)
16            O=C(O)c1ccc2cc(Cl)c3ccccc3c2c1   26% (inactive)
17  CCCCCCCCCCCCCCCCCCNC(=S)/N=C/c1c(O)c2ccccc2[nH]c1=O   -3% (inactive)
18  O=C1C(=O)c2cccc([N+](=O)[O-])c2-c2ccccc21    3% (inactive)
19  CC1=CC(C)(C)SC(SSSC2=NC(C)=CC(C)(C)S2)=N1    0% (inactive)
20  CC(=O)CC(c1ccccc1)c1c(O)c2ccccc2oc1=O (centres undefined)    3% (inactive)
21  NCCOc1ccc(/C(=C(/Cl)c2ccccc2)c2ccccc2)cc1   34% (inactive)
22               NNc1ccccc1-c1nc2ccccc2[nH]1   -3% (inactive)
23  O=C(Cc1ccccc1)NN1C(=O)C(Cl)C1c1cc(Br)cc(Br)c1O (centres undefined)     90% (active)
24  Nc1ccc(S(=O)(=O)Nc2nc3c(c(=O)[nH]2)CCCC3)cc1     75% (active)
